Target: T1, human-CD137 (ELISA antigen of the affinity maturation screen) (human, UniProt Q07011 24-186, limits assumed)
T1 construct: also called human-CD137 ECD
Experiment: ELISA of Fab in supernatants after phage panning
PROPERTY_LABEL: binding result

Clone 19 (Fab in supernatant) (Fab, V domains shown, Screened as Fab in supernatant) VH: QVQLVQSGAEVKKPGASVKVSCKASGFNMKDTYIHWVRQAPGQGLEWMGKIDPANGATEYAQKFQGRVTMTRDTSTSTVYMELSSLRSEDTAVYYCTTGNLHYGLMDYWGQGTSVTVSS VL: DIQMTQSPSSVSASVGDRVTITCKASQAINTYLSWYQQKPGKAPKLLIYRANRMGDGVPSRFSGSGSGTDFTLTISSLQPEDFATYYCLQSDDFPYTFGGGTKLEIKR :: binds
Clone 18 (Fab in supernatant) (Fab, V domains shown, Screened as Fab in supernatant) VH: QVQLVQSGAEVKKPGASVKVSCQASGFNIKDTYIHWVRQAPGQGLGWMGKIDPANGMTEYAQKFQGRVTVTRDTSTSTVYMELSSLRSEDTAVYYCTTGNLHYALMDYWGQGTSVTVSS VL: DIQMTQSPSSVSASVGDRVTITCKASQAPNTYLSWYQQKPGKAPKLLIYRANRMVDGVPSRFSGSGSGTDFTLTISSLQPEDFATYYCLQYEDFPYTFGGGTKLEIKR :: binds
Clone 2-11 (Fab in supernatant) (Fab, V domains shown, Screened as Fab in supernatant) VH: QVQLVQSGAEVKKPGASVKVSCKASGFNIKDTYIHWVRQAPGQGLEWMGKIDPANGGTEYAQKFQGRVTMTRDTSTSTVYMELSSLRSEDTAVYYCTTGNLHYALMDYWGQGTSVTVSS VL: DIQMTQSPSSVSASVGDRVTITCKASQPINTYLSWYQQKPGKAPKLLIYRVNRKVDGVPSRFSGSGSGTDFTLTISSLQPEDFATYYCLQYVDFPYTFGGGTKLEIKR :: binds
